Target: Retinaldehyde dehydrogenase 3 (Homo sapiens) (UniProt P47895)
Assay: qHTS for Inhibitors of the Aldehyde Dehydrogenase Family (ALDH1A3) Primary screen (AID 2061315)
Settings: ALDH inhibition qHTS; series mostly up to 56 µM
Results filed as inconclusive are left out. Activity calls are given as the source filed them. Calls come from the whole dose curve; as a rule, active = well fitted inhibition curve with a large enough effect; inconclusive = small, poorly fitted or top-dose-only effect; inactive = no such curve, though single readings can be large or run the other way.
measured quantity: activity change, negative = inhibition

compound: Cn1ncc(Cl)c1-c1cc(C(=O)N[C@H](CN)Cc2ccc(F)c(F)c2)sc1Cl
activity change, negative = inhibition: inactive
--
compound: Cc1ccc(CNc2ncnc3ccc(-c4oc(-c5ccccc5)nc4C)cc23)o1
activity change, negative = inhibition: inactive
--
compound: C#CCCC(=O)Nc1sc2c(c1-c1nc3ccccc3s1)CCN(C(C)C)C2
activity change, negative = inhibition: inactive
--
compound: Nc1nc(Nc2cc(F)cc(F)c2)nc(NC2CCCC2)n1
activity change, negative = inhibition: inactive
--
compound: O=C(/C=C/c1ccc(Cl)cc1)Nc1cccc([S+](=O)([O-])Nc2ccccc2F)c1
activity change, negative = inhibition: inactive

// switching to the query compound
(Q) Entry under review: S=C(NCCCc1cnc[nH]1)NCCCN(Cc1ccc(Cl)c(Cl)c1)c1ccc(Br)cn1 . Reported activity change, negative = inhibition?
(A) inactive
